# Test system: biotinyl-Leu-oxazolone
# Experimental Protocol: self-aminoacylation, catalytic enhancement (BLO) (fold over background); higher = more active; k-Seq, kA / k0A0; sequences stand for … in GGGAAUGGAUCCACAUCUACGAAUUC…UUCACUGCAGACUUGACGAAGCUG
This sample holds only a part of the variants without activity.
Tick Y if self-aminoacylation is 3 or greater. Tick N if self-aminoacylation is less than 3.

A selection of reference data follows.
# bool: self-aminoacylation of AUUACCCUGGUCUUCAAGUGA [Fam2.1 aminoacylation ribozyme variant] >= 3
Y

Could you tell me if the measured self-aminoacylation of AUUCGCCUAGGUCAUCGGGCG [Fam2.2 aminoacylation ribozyme variant] reaches 3 or more?
Y

Form field: self-aminoacylation at least 3? Entry: CCACACUUCCAGCAAUCGGUC [Fam1B.1 aminoacylation ribozyme variant]
N

Assess whether reported self-aminoacylation for CCACAUUUCUAGCAAUCGGUC [Fam1B.1 aminoacylation ribozyme variant] sits at 3 or higher.
N

In plain terms: is recorded self-aminoacylation at least 3 for AUUACCCUGGUCAUAGAGUGG [Fam2.1 aminoacylation ribozyme variant] ?
N

New cases:
Item ACUACCCUGGUCUUCGAGUGA [Fam2.1 aminoacylation ribozyme variant] with self-aminoacylation of 3 or above?
Y

Reported self-aminoacylation reaches at least 3 for AUUACUCUGGUCAUCGCGUGA [Fam2.1 aminoacylation ribozyme variant] ?
Y

Does the sequence AAAUUUGCAAAUAGUCGCAAG [Fam3.1 aminoacylation ribozyme variant] have recorded self-aminoacylation that is 3 or more?
N

# check: self-aminoacylation of AUUCACCUCUGUCAUCGGGUG [Fam2.2 aminoacylation ribozyme variant] is greater than or equal to 3
Y

Item CCACACUUCAAGUAAUCGGUA [Fam1B.1 aminoacylation ribozyme variant] with self-aminoacylation of 3 or above?
N

---

# System: biotinyl-Val-oxazolone
# Experimental Protocol: self-aminoacylation, catalytic enhancement (BVO) (fold over background); higher = more active; k-Seq, kA / k0A0; sequences stand for … in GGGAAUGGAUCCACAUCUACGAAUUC…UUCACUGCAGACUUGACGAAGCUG
This sample holds only a part of the variants without activity.
Parameter Measured: self-aminoacylation

See these solved cases before continuing.
Reported self-aminoacylation, sequence CUACUUCAAACAAUCGUUCGG [Fam1A.1 aminoacylation ribozyme variant] : ____
0.623

Given the entry AAUCACCUAGGUCAUCGGUUG [Fam2.2 aminoacylation ribozyme variant] , report its measured self-aminoacylation.
1.29

Further cases:
Requested field: self-aminoacylation. Item: AUUCCCCUAGGACAUCGGGUG [Fam2.2 aminoacylation ribozyme variant]
6.82

---

# Tested on: biotinyl-Val-oxazolone
# Experimental Protocol: self-aminoacylation, catalytic enhancement (BVO) (fold over background); higher = more active; k-Seq, kA / k0A0; sequences stand for … in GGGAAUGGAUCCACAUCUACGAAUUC…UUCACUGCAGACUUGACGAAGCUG
This sample holds only a part of the variants without activity.
Parameter Measured: self-aminoacylation
Answer using only a numeral; do not append any unit.

Would you mind telling me what self-aminoacylation value was observed for AUUACCCUGGCCAUCGAGUGG [Fam2.1 aminoacylation ribozyme variant] ?
1.17

Look up self-aminoacylation for this sequence: AAGUUUGCUAAUAGUGGCGAG [Fam3.1 aminoacylation ribozyme variant]
0.88

Query: self-aminoacylation; subject: CCACACUCCACGCAAUCGGUC [Fam1B.1 aminoacylation ribozyme variant]
1.62

Can you look up the measured self-aminoacylation of AUUCACCUAGGUGAUCGGGUG [Fam2.2 aminoacylation ribozyme variant] for me?
2.62

Further cases:
Would you kindly share the measured self-aminoacylation for AUUACCCUGGUCAACUAGUGA [Fam2.1 aminoacylation ribozyme variant] ?
4.39

Entry CUACUUCAAACAAUCUGGCUG [Fam1A.1 aminoacylation ribozyme variant] : reported self-aminoacylation = ?
0.963
